assay: NTR1-driven beta-arrestin-GFP spot formation – imaging, U2OS cells, high content, primary screen (AID 493036); details: agonist mode, measured here: cell count, cytotoxicity flag, at 20 µM
The whole screen tested about 330,000 compounds, of which about 560 (0.17%) were called active. Only a selection was taken, and actives are over-represented in it overall.
experimental.readout: cell count (cells)
Enter your answer as a number in cells; do not include the unit.

For `O=C(N/N=C/c1ccccn1)c1cccc(NC(=O)c2ccc(Cl)cc2)c1` , what is its reported cell count?
56

Quick check: cell count of `Nc1c(C(=O)Nc2ccc3c(c2)OCCO3)nnn1Cc1ccccc1` ?
53

Return reported cell count; argument: `CCO[C@H]1OC(C(=O)NCc2ccccc2)=C[C@@H](c2coc3ccccc3c2=O)[C@@H]1CCCO`
79

Using the record for `CC(=O)N[C@H]1[C@H]([C@H](O)[C@H](O)CO)OC(C(=O)O)=C[C@@H]1O` , report its cell count.
69

What does the data say about its cell count? Entry: `CSc1ccc(CNCCN2CCOCC2)cc1`
55

GET /values?readout=cell count&item= `COc1cc(OC)cc(C(=O)NNC(=O)CCOc2ccccc2OC)c1`
73

Tell me the measured cell count of O=C(COC(=O)C1CC2C=CC1C2)Nc1ccccc1 (centres undefined) , please.
55

What does the data say about its cell count? Entry: O=C(OCC(O)C(O)COC(=O)c1ccccc1)c1ccccc1 (centres undefined)
68

cell count for `CCOC(=O)Cn1c(=O)n(Cc2ccc(OC)cc2)c(=O)c2cccnc21` ?
62

---

molecular target: Neurotensin receptor type 1 (Homo sapiens) (UniProt P30989); assay: NTR1-driven beta-arrestin-GFP spot formation – imaging, U2OS cells, high content, primary screen (AID 493036); settings: agonist mode, at 20 µM, stronger effect = higher value;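 as to activation: 0% = DMSO without peptide and 100% = 100 nM NTR1 peptide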
Sequence (P30989 whole entry, looked up): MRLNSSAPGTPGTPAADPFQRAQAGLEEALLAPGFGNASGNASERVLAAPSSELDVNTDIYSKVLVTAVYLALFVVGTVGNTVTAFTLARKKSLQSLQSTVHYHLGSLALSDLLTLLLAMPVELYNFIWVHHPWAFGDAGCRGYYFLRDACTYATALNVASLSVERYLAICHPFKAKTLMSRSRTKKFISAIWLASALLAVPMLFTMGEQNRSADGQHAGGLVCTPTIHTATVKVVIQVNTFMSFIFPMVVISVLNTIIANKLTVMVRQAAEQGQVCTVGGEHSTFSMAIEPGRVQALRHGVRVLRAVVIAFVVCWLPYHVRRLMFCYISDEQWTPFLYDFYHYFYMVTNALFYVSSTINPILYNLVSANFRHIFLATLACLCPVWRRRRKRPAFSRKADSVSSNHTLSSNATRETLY
Out of some 330,000 compounds screened, about 560 (0.17%) were called active. Shown is part of a subset that was picked to be rich in actives.
experimental.readout: activation (%)
Give a bare numeral; the unit % is implied.

Missing value: activation, Neurotensin receptor type 1 (Homo sapiens) (UniProt P30989), entry `CC(C)Cn1c(CCC(=O)O)ccc1-c1cccs1` . Fill in?
-0.5

Given the entry `CC1(C)Cc2ccccc2-c2nc(CN3CCOCC3)[nH]c(=O)c21` , what activation was observed with Neurotensin receptor type 1 (Homo sapiens) (UniProt P30989)?
-0.1

For the record `CC1CCN(S(=O)(=O)c2ccc3c(ccn3CC(=O)O)c2)CC1` , what value of activation is listed for Neurotensin receptor type 1 (Homo sapiens) (UniProt P30989)?
0.7

Request body: readout activation, system Neurotensin receptor type 1 (Homo sapiens) (UniProt P30989), query CN(C)CCNC(=O)C(C(=O)c1ccccc1)n1ccccc1=O (stereo unspecified) . Return the value.
-1.5

Which measured activation belongs to Cc1ccc(N2C(=O)C(NC(=O)c3c(F)cccc3F)(C(F)(F)F)C3=C2CC(C)(C)CC3=O)cc1 (stereo unspecified) , tested on Neurotensin receptor type 1 (Homo sapiens) (UniProt P30989)?
4

Short answer please: activation, Neurotensin receptor type 1 (Homo sapiens) (UniProt P30989), entry `Cn1c(-c2ccc(C(=O)c3ccccc3)s2)nc2ccccc21`
-1.6

// lookup activation | system=Neurotensin receptor type 1 (Homo sapiens) (UniProt P30989) | key= Cc1ccc2nc3c(cc(C(=O)NCCc4ccccc4)c(=N)n3CC3CCCO3)c(=O)n2c1 (stereo unspecified)
0.1

Test system Neurotensin receptor type 1 (Homo sapiens) (UniProt P30989); read-out activation; what value for CCN(CCNC(=O)C1=C(C)C(=O)OC12CCC(C)CC2)c1ccccc1 (stereo unspecified) ?
3.9

# query: activation | item `COc1ccnc(Oc2ccccc2)n1` | system: Neurotensin receptor type 1 (Homo sapiens) (UniProt P30989)
3

Which measured activation belongs to `CC(=O)N[C@H]1[C@H]([C@H](O)[C@H](O)CO)OC(C(=O)O)=C[C@@H]1O` , tested on Neurotensin receptor type 1 (Homo sapiens) (UniProt P30989)?
1.8

Could you share what activation was measured for CCOC(=O)CN1CC23C=CC(O2)C(C(=O)Nc2ccc(F)cc2)C3C1=O (stereo unspecified) , tested on Neurotensin receptor type 1 (Homo sapiens) (UniProt P30989)?
-1.6

Checklist item: activation tested on Neurotensin receptor type 1 (Homo sapiens) (UniProt P30989), entry COc1ccc(CC(NC(C)=O)C(=O)N2CCN(C(=O)Nc3cccc(Cl)c3)CC2)cc1OC (stereo unspecified) , value?
-0.5

Recorded activation for `CC1(C)Cc2ccccc2-c2[nH]c(=S)[nH]c(=O)c21` with Neurotensin receptor type 1 (Homo sapiens) (UniProt P30989), please?
0.3

Identify the measured activation of COCC(C)n1c(C)cc(C(=O)CSc2cc(C)c3ccccc3n2)c1C (stereo unspecified) for Neurotensin receptor type 1 (Homo sapiens) (UniProt P30989).
5

GET /values?readout=activation&system=Neurotensin receptor type 1 (Homo sapiens) (UniProt P30989)&item= CCN(CC)S(=O)(=O)c1ccc(Cl)c(C(=O)NC(C)C(c2cccs2)N2CCCC2)c1 (stereo unspecified)
0.4

Form field: activation recorded for `COc1ccc(N2CCN(S(=O)(=O)c3ccc4c(c3)N(C(C)=O)CCO4)CC2)cc1` with Neurotensin receptor type 1 (Homo sapiens) (UniProt P30989) (enter value)
1.4

---

target: Neurotensin receptor type 1 (Homo sapiens) (UniProt P30989); assay: NTR1-driven beta-arrestin-GFP spot formation – imaging, U2OS cells, high content, primary screen (AID 493036); conditions: agonist mode, at 20 µM
Screen size: about 330,000 compounds; about 560 (0.17%) were called active.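 Rule for the calls: active = activation at or above 40% of the spot to cytoplasm intensity ratio, with at least 20 cells analyzed; inconclusive = wells under 20 cells, flagged as cytotoxic or low count; inactive = the rest.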 What follows is part of a selection rich in actives, with near analogues and random picks from the rest.
Give one outcome, nothing more. List: 1 (active), 0 (inactive)

Outcome logged for COc1ccc(C2CC(=O)C=C(NCC3CCCO3)C2)cc1 (stereo not given) in this assay:
0

In this assay, the call recorded for `CC(=O)Nc1cccc(OCC(=O)/C=C2\N(C)c3ccccc3C2(C)C)c1` was what?
0

Outcome logged for `O=S(=O)(c1ccccc1)N1CN(Cc2ccc(F)cc2)c2nc3ccccc3nc21` in this assay:
0

I'd appreciate the recorded outcome for `CN1/C(=C\C(=O)c2oc3ccccc3c2N)C(C)(C)c2ccccc21` from this test.
1

Answer briefly: the call reported for `CCCCC[C@@H]1C=C(C(=O)O)[C@H](c2ccc(C#N)cc2)N1S(=O)(=O)c1ccc(C)cc1` in this assay.
0

Called result for `CCCCOc1ccc(C(=O)NCC(=O)OCC(=O)c2c(N)n(C)c(=O)n(C)c2=O)cc1`
0

Record lookup: outcome of this test for `O=C(O)c1cccc(N=NN2CCCCCC2)c1` ?
0

Which outcome was assigned to `CN(C)S(=O)(=O)N1CCN(c2ccc([N+](=O)[O-])cc2)CC1` in this test?
0

For this compound, state the assay outcome: `CCCCOc1ccc(N(CC(=O)NC(C)C)C(=O)CCC(=O)Nc2ccccn2)cc1`
0

GET /call?item= `Cc1cc(N(C)C)cc(C)[n+]1[O-]` returns the recorded outcome of this test.
0

---

target: Neurotensin receptor type 1 (Homo sapiens) (UniProt P30989); assay: NTR1-driven beta-arrestin-GFP spot formation – imaging, U2OS cells, high content, primary screen (AID 493036); conditions: agonist mode, at 20 µM
Among all 330,000 compounds or so, about 560 (0.17%) were called active.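 How the source made its calls: active means activation at or above 40% of the spot to cytoplasm intensity ratio, with at least 20 cells analyzed; inconclusive means wells under 20 cells, flagged as cytotoxic or low count; inactive means the rest.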 For the sample, actives were picked, then their nearest neighbours and some compounds at random.
Use one of these outcomes when replying: active, inactive

How did this test come out for Cc1cc(C)c(NC(=O)C[N+](C)(C)CC(O)COc2cccc3ccccc23)c(C)c1 (stereo unspecified) ?
inactive

Name the outcome recorded for CCOC(=O)CSC1=C(C#N)C(c2ccco2)C(C(=O)OCc2ccccc2)=C(C)N1 (stereo unspecified) in the assay.
active

Assay result, entry CC(Oc1ccccc1)C(=O)Nc1oc(-c2ccco2)c(-c2ccco2)c1C#N (stereo unspecified) — outcome?
inactive

Can you look up the reported call for `Cc1ccc(S(=O)(=O)NNC(=O)/C=C/c2cccc(F)c2)cc1` for me?
inactive

Answer briefly: the call reported for `CCC/C(C)=N\Nc1nc2c(c(=O)n(C)c(=O)n2C)n1C` in this assay.
inactive

# outcome recorded in this test, key = `CN(C(=O)c1cccc(NC(=O)C2CCN(C(=O)OC(C)(C)C)CC2)c1)C1CCC1`
inactive

Any idea what this test logged for `CCCC(=O)Nc1ncnc2c1ncn2[C@@H]1O[C@@H]2OP(=O)(O)OC[C@H]2[C@H]1OC(=O)CCC` ?
inactive

Recorded test call requested for `O=[N+]([O-])/C=C/c1ccc2c(ccn2Cc2ccccc2)c1`
active

// outcome(item) with item = Cc1coc(C)c1C(=O)CC1(O)C(=O)N(C)c2ccc(Cl)cc21 (stereo unspecified)
inactive

Tell me the recorded outcome of this test for `Cc1cc(C)cc(NC(=O)COc2coc(CN3CCN(c4ccccc4)CC3)cc2=O)c1` .
inactive

For `COc1ccc(OC)c(NC(=O)c2cnn(-c3ccccc3Cl)c2NC(=O)c2ccco2)c1` , what call appears in the results of this test?
inactive

Hey, what did the test say about COc1ccc(C2=NN(c3ccccc3)C(c3cccs3)C2)cc1 (stereo unspecified) ?
inactive

What did the test return for `O=C(Nc1ccncc1)c1ccc(Cl)c([N+](=O)[O-])c1` ?
inactive

Kindly provide the recorded test outcome for the following compound: CC1=C(C(=O)OCc2ccccc2)C(c2ccco2)n2ncnc2N1 (stereo unspecified)
inactive

Outcome? `O=C(/C=C/c1ccc(Cl)cc1Cl)c1cccnc1`
inactive

Which outcome did this test record for the compound O=C(NC(=S)NC1CCS(=O)(=O)C1)c1cccc([N+](=O)[O-])c1 (stereo unspecified) ?
inactive

Could you please tell me the result logged for `Cc1ccccc1OCc1nnc(SCC(=O)N2c3ccccc3Sc3ccc(Cl)cc32)o1` in this assay?
inactive

Tell me the assay call for `Cc1cc(C)n(CCNS(=O)(=O)c2ccc(Cl)cc2)n1` please.
inactive

Outcome? `CCCNC(=O)COc1coc(CN2CCN(Cc3ccccc3)CC2)cc1=O`
inactive

Recorded call for CCC(C)Sc1nc2c(c(=O)[nH]c(=O)n2C)n1CC(O)COc1cccc2ccccc12 (stereo unspecified) ?
inactive

Assay result, entry O=C1C2N=NN(CC(=O)N3N=C(c4cccc5ccccc45)CC3c3ccccc3)C2C(=O)N1c1ccccc1 (stereo unspecified) — outcome?
inactive
